Property: protein stability index; scope: individual sequences
# EXPERIMENT_SUMMARY: protein stability index of a GFP-peptide fusion (GPS, HEK-293T) (PSI 1-6); higher = more stable;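 also: 24-mer peptide tiles fused after GFP, lentivirally expressed, FACS-sorted into six equal bins by GFP/DsRed ratio, decoded by Illumina sequencing, PSI is the read-weighted mean bin number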
# CONDITION_DETAILS: treatment: MLN4924 1 uM, 8 h; c terminus: a fixed tail appended
QUANTITY_MEASURED: protein stability index

> print(dat)
                          residue.codes        quantity.measured  measurement
 1  APMVAGALARLGTVTVISPLELMR [SLC25A39]  protein stability index         2.41
 2     QMQEDNSSFSLLLDLLSELYQKQP [INTS3]  protein stability index         2.37
 3      PADSAQLLSLNSLLPESGIVADIE [TFE3]  protein stability index          5.1
 4   NFCKEQAARISNKGKFSTDTKGKP [ZC2HC1A]  protein stability index         4.27
 5    AESFLLKSPIAPCSLDKRVILIFH [CDC25B]  protein stability index         2.68
 6       VIGFAKMIPGFRDLTSEDQIVLLK [VDR]  protein stability index         2.42
 7  QLDMFYRNWALKESFIKAIGVGLG [AASDHPPT]  protein stability index         2.92
 8    ADLLAGFGGSFMAPSPSPVTPAQN [SNAP91]  protein stability index         4.28
 9      HGPDLYPKFKKWCDDYFFIAHRGE [CPOX]  protein stability index          2.1
10    MENKAMYLHTVSDCDTSSICEDSF [SCARA5]  protein stability index         4.49
11     LRGKFKRPPLRRVRMSADAMLKAL [TNNI2]  protein stability index          2.4
12     HASKCEFLANLHITALLNVSRRTS [DUSP5]  protein stability index         2.33
13     REAMLEMLLQHQICKEVQAEQEPT [SPAG8]  protein stability index         4.15
14       LFVIVPVLGPLVALIICYNWLHRR [MOG]  protein stability index         3.11
15    LVTGGELFEDIVAREYYSEADASH [CAMK2A]  protein stability index         3.91
16      DEHEHPLTSELDPEKEQEIETIKI [MIA2]  protein stability index         5.36
17     VKSKAKKTVDKHSDEYKIRRERNN [CEBPB]  protein stability index         4.79
